- system: T1, VOP 32B-7 (VZ+434b, mVZ+426) (synthetic)
- T1 chain: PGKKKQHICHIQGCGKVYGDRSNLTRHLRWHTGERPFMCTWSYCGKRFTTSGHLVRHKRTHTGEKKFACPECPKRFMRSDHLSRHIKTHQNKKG
- experimentNotes: EMSA
- recordedConditions: tags: MBP fusion (pMal-c2), SP1 backbone
pKd: −log10 of the molar value.
propertyLabel: pKd

For reference, reported pKd for VOP 32A/32B target (dsDNA) DNA 1: GGGGGTGAC DNA 2: GTCACCCCC stands at > 10.70
